Some sequences, each annotated with its measured RBNS R-value.
System: PyIESI-1 RRM domain (Plasmodium yoelii PY17X_0911200 aa 795-956, GST fusion)
Experiment: RBNS R-value (6-mer enrichment in protein-bound RNA vs input library) (ratio); higher = stronger binding preference; the methods of the paper give 50 / 100 / 500 nM protein instead
Conditions: protein concentration: 500 nM
Whole data set: some 4,100 sequences, median “RBNS R-value (6-mer enrichment in protein-bound RNA vs input library)” near 0.96, cut for the highest 2% near 2.4. The sample as a whole holds a higher share of the highest values than the screen did.
Number only, no unit.

Consider the worked cases shown below.
{"columns": ["chain.sequence", "RBNS R-value"],
 "data": [
  ["GAUAGC", 2.39],
  ["UUGAUU", 6.65],
  ["UAUGUC", 0.672],
  ["GAGGCA", 1.06],
  ["CAGCGU", 0.809],
  ["UAUGUG", 0.971],
  ["GUGGCC", 0.981],
  ["UAUGCC", 0.84],
  ["GAUACC", 1.85],
  ["GAUGCA", 2.5]
]}

Ask | Fill in: RBNS R-value of GAUGCG is ___
Reply | 2.45

Ask | Fill in: RBNS R-value of GAUGUA is ___
Reply | 2.41

Ask | Fill in: RBNS R-value of GGGUUU is ___
Reply | 0.992
